- TARGET SYSTEM: GLP-1R (Homo sapiens, UniProt P43220)
- Sequence (P43220 24-463): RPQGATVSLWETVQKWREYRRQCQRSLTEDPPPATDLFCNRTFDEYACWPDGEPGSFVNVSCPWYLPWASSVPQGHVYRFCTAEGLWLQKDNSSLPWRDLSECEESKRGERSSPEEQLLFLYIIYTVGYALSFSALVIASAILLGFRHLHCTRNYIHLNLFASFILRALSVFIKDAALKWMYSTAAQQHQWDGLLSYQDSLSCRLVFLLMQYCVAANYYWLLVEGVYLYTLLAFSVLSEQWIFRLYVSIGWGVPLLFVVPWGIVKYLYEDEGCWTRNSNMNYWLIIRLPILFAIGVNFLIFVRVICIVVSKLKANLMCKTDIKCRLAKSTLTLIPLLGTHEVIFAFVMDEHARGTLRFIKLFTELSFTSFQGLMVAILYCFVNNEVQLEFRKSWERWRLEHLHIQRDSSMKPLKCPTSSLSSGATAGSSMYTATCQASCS
- TEST DETAILS: GLP-1R agonist cAMP stimulation assay (HTRF cAMP)
- Format: cell-based
- STUDY CONDITIONS: HEK293 cell line expressing GLP-1 target; HTRF cAMP agonist mode, 30 min at RT
For each of the molecules below, state its pEC50.
Lab note — pEC50 values are minus log10 of concentrations in M.

Q: Form field: reported pEC50 of O=C(Nc1cc(C(F)(F)F)c2c(c1)C1(CC1)C(=O)N2)c1ccc2nc(CN3CC=C(c4cccc(OCc5ccc(Cl)cc5F)n4)CC3)n(C[C@@H]3CCO3)c2c1
Ans: 8.56

Q: Can you handle O=C(Nc1ccc2[nH]nc(C3CC3)c2c1)c1ccc2c(c1)nc(CN1CCC(c3cccc(OCc4ccc(Cl)cc4F)n3)CC1)n2C[C@@H]1CCO1 next?
Ans: 8.21

Q: Can you handle Cc1n[nH]c2c(C)cc(C(=O)Nc3ccc4c(c3)nc(Cc3ccc(-c5cccc6c5OC(C)(c5ccc(C#N)cc5F)O6)cc3F)n4CC3CCO3)cc12 (stereo not drawn) next?
Ans: 9.49

----------
- TARGET SYSTEM: GLP-1R (Homo sapiens, UniProt P43220)
- TEST DETAILS: GLP-1R agonist cAMP stimulation assay (HTRF cAMP)
- STUDY CONDITIONS: HEK293 cell line expressing GLP-1 target; HTRF cAMP agonist mode, 30 min at RT
PARAMETER: EC50 (pM)
Enter your answer as a number in pM; do not include the unit.

Q: Form field: reported EC50 of Cc1n[nH]c2ccc(NC(=O)c3ccc4c(c3)nc(CN3CC=C(c5cccc(OCc6ccc(Cl)cc6F)n5)CC3)n4C[C@@H]3CCO3)nc12
Ans: 3690

Q: Can you handle Cc1n[nH]c2c(C)cc(C(=O)Nc3ccc4c(c3)nc(CN3CC=C(c5cccc6c5OC(C)(c5ccc(Cl)cc5F)O6)CC3)n4CC3CCO3)cc12 (stereo not drawn) next?
Ans: 190

Q: Can you handle Cc1n[nH]c2ccc(C(=O)Nc3ccc4c(c3)nc(CN3CC=C(c5cccc(OCc6ccc(C#N)cc6F)n5)CC3)n4C[C@@H]3CCO3)cc12 next?
Ans: 420

Q: Can you handle CCc1n[nH]c2ccc(C(=O)Nc3ccc4c(c3)nc(CN3CCC(c5cccc6c5OC(C)(c5ccc(C#N)cc5F)O6)CC3)n4CC3CCO3)cc12 (stereo not drawn) next?
Ans: 760

Q: Can you handle Cc1cc(NC(=O)c2ccc3c(c2)nc(CN2CCC(c4cccc(OCc5ccc(Cl)cn5)n4)CC2)n3C[C@@H]2CCO2)cc2c1NC(=O)C21CC1 next?
Ans: 1210

Q: Can you handle Cc1n[nH]c2ncc(C(=O)Nc3ccc4c(c3)nc(CN3CC=C(c5cccc(OCc6ccc(C#N)cc6F)n5)CC3)n4C[C@@H]3CCO3)cc12 next?
Ans: 3870

----------
- TARGET SYSTEM: GLP-1R (Homo sapiens, UniProt P43220)
- TEST DETAILS: GLP-1R agonist cAMP stimulation assay (HTRF cAMP)
- STUDY CONDITIONS: HEK293 cell line expressing GLP-1 target; HTRF cAMP agonist mode, 30 min at RT
PARAMETER: pEC50
Lab note — pEC50 values are minus log10 of concentrations in M.

Q: Form field: reported pEC50 of Cc1cc(NC(=O)c2ccc3c(c2)nc(CN2CC=C(c4cccc5c4OC(C)(c4ccc(Cl)cc4F)O5)CC2)n3CC2CCO2)cc2c(C(F)(F)F)n[nH]c12 (stereo not drawn) [Compound 296]
Ans: 8.72

Q: Can you handle Cc1n[nH]c2c(C)cc(C(=O)Nc3ccc4c(c3)nc(CN3CC=C(c5cccc(OCc6ccc(Cl)cc6F)n5)CC3)n4C[C@@H]3CCO3)cc12 [Compound 197] next?
Ans: 9.72

Q: Can you handle Fc1cc(Cl)ccc1COc1cccc(C2=CCN(Cc3nc4ccc(CNc5cc(F)c6[nH]ncc6c5)cc4n3C[C@@H]3CCO3)CC2)n1 [Compound 268] next?
Ans: 8.44

----------
- TARGET SYSTEM: GLP-1R (Homo sapiens)
- TEST DETAILS: GLP-1R agonist cAMP stimulation assay (HTRF cAMP)
- STUDY CONDITIONS: HEK293 cell line expressing GLP-1 target; HTRF cAMP agonist mode, 30 min at RT
For each of the compounds below, state its pEC50.
Lab note — pEC50 values are minus log10 of concentrations in M.

Q: Form field: reported pEC50 of Cc1n[nH]c2c(C)cc(NC(=O)c3ccc4c(c3)nc(CN3CCC(c5cccc6c5OC(C)(c5ccc(C#N)cc5F)O6)CC3)n4CC3CCO3)cc12 (stereo not drawn)
Ans: 9.01

Q: Can you handle Cc1c(C#N)sc(COc2cccc(C3CCN(Cc4nc5cc(NC(=O)c6ccc7[nH]nc(C)c7c6)ccc5n4C[C@@H]4CCO4)CC3)n2)c1F next?
Ans: 9.41

Q: Can you handle CCc1n[nH]c2ccc(C(=O)Nc3ccc4c(c3)nc(CN3CC=C(c5cccc(OCc6ccc(C#N)cc6F)n5)CC3)n4C[C@@H]3CCO3)cc12 next?
Ans: 9.06

Q: Can you handle Cc1n[nH]c2c(C)cc(C(=O)Nc3ccc4nc(CN5CC=C(c6cccc(OCc7ccc(Cl)cc7F)n6)CC5)n(CC5CCO5)c4c3)cc12 (stereo not drawn) next?
Ans: 9.02

Q: Can you handle O=C(Nc1ccn2ncc(Cl)c2c1)c1ccc2c(c1)nc(CN1CCC(c3cccc(OCc4ccc(Cl)cc4F)n3)CC1)n2CC1CCO1 (stereo not drawn) next?
Ans: 6.86

Q: Can you handle Cc1cc2c(C#N)ccc(COc3cccc(C4=CCN(Cc5nc6cc(NC(=O)c7cc(F)c8[nH]nc(C)c8c7)ccc6n5C[C@@H]5CCO5)CC4)n3)c2o1 next?
Ans: 9.72

Q: Can you handle COCCn1c(Cc2ccc(-c3cccc(OCc4ccc(C#N)cc4F)n3)cc2)nc2cc(C(=O)NCCc3ccc(N)cc3)ccc21 next?
Ans: 5.53

Q: Can you handle Cc1cc(NC(=O)c2ccc3c(c2)nc(CN2CC=C(c4cccc(OCc5ccc(Cl)cc5F)n4)CC2)n3C[C@@H]2CCO2)c(F)c2c(C)n[nH]c12 next?
Ans: 8.91

Q: Can you handle O=C(Nc1cc2[nH]ccc2s1)c1ccc2c(c1)nc(CN1CC=C(c3cccc(OCc4ccc(Cl)cc4F)n3)CC1)n2C[C@@H]1CCO1 next?
Ans: 7.14

Q: Can you handle Cc1nn(C)c2ccc(NC(=O)c3ccc4c(c3)nc(CN3CCC(c5cccc(OCc6ccc(Cl)cc6F)n5)CC3)n4C[C@@H]3CCO3)cc12 next?
Ans: 7.33

Q: Can you handle CC1(c2ccc(Cl)cc2F)Oc2cccc(C3=CCN(Cc4nc5cc(C(=O)Nc6ccc7[nH]nc(C(F)(F)F)c7c6)ccc5n4CC4CCO4)CC3)c2O1 (stereo not drawn) next?
Ans: 8.44

Q: Can you handle COCCn1c(CN2CCC(c3cccc(OCc4ccc(Cl)cc4F)n3)CC2)nc2cc(C(=O)N[C@@H](C)c3ccc(O)cc3)ccc21 next?
Ans: 7.44

----------
For each of the compounds below, state its pEC50.
- TARGET SYSTEM: GLP-1R (Homo sapiens, UniProt P43220)
- TEST DETAILS: GLP-1R agonist cAMP stimulation assay (HTRF cAMP)
- STUDY CONDITIONS: HEK293 cell line expressing GLP-1 target; HTRF cAMP agonist mode, 30 min at RT
Lab note — pEC50 values are minus log10 of concentrations in M.

Q: Form field: reported pEC50 of CC1(C)C[C@@H](C(=O)O)N(C(=O)CNC(=O)c2ccc3c(c2)nc(CN2CCC(c4cccc(OCc5ccc(Cl)cc5F)n4)CC2)n3C[C@@H]2CCO2)C1 [Compound 58]
Ans: 8.36

Q: Can you handle CCc1n[nH]c2ccc(C(=O)Nc3ccc4c(c3)nc(CN3CC=C(c5cccc6c5OC(C)(c5ccc(C#N)cc5F)O6)CC3)n4CC3CCO3)cc12 (stereo not drawn) [Compound 310] next?
Ans: 9.03

Q: Can you handle COCCn1c(C2CC23CCN(c2cccc(OCc4ccc(C#N)cc4F)n2)CC3)nc2cc(C(=O)Nc3ccc4[nH]nc(C)c4c3)ccc21 (stereo not drawn) [Compound 7] next?
Ans: 9.46

----------
Measurement record for GLP-1R (Homo sapiens, UniProt P43220); quantity recorded: Ki.
Quick note: unit goes after the number.

Q: Form field: reported Ki of Cc1n[nH]c2ccc(NC(=O)c3ccc4c(c3)nc(CN3CCC(c5cccc(OCc6ccc(Cl)cc6F)n5)CC3)n4C[C@@H]3CCO3)cc12
Ans: 920 nM

Q: Can you handle Cc1n[nH]c2c(F)cc(C(=O)Nc3ccc4c(c3)nc(CN3CCC(c5cccc6c5OC(C)(c5ccc(Cl)cc5F)O6)CC3)n4CC3CCO3)cc12 (stereo not drawn) next?
Ans: 88.5 nM

Q: Can you handle Cc1cc(NC(=O)c2ccc3c(c2)nc(CN2CC=C(c4cccc(OCc5ccc(C#N)cc5F)n4)CC2)n3C[C@@H]2CCO2)cc2c1NC(=O)C21CC1 next?
Ans: 430 nM

Q: Can you handle CCn1cncc1Cn1c(CN2CC=C(c3cccc(OCc4ccc(Cl)cc4F)n3)CC2)nc2cc(NC(=O)c3cc(F)c4[nH]nc(C)c4c3)ccc21 next?
Ans: 68.4 nM

Q: Can you handle Cc1cc(NC(=O)c2ccc3c(c2)nc(CN2CCC(c4cccc(OCc5ccc(Cl)cc5F)n4)CC2)n3C[C@@H]2CCO2)cc2c1NC(=O)C21CC1 next?
Ans: 1000 nM

Q: Can you handle Cc1n[nH]c2c(C)cc(NC(=O)c3ccc4nc(CN5CC=C(c6cccc(OCc7ccc(C#N)cc7F)n6)CC5)n(CC5CCO5)c4c3)cc12 (stereo not drawn) next?
Ans: 1010 nM
